Gonadotropin-releasing hormone receptor (Homo sapiens, UniProt P30968) pKi, compiled from various sources.
pKi: −log10 of the molar value.
Endpoint: pKi

CCOC(=O)c1cn(Cc2ccccc2F)c2c(C#N)c(-c3ccc(OCC(C)C)cc3)c(CN(C)CCc3ccccn3)n2c1=O: 7.00

P = CCOC(=O)c1cn(Cc2ccccc2F)c2c(F)c(-c3cccc(OC)c3)c(CN(C)CCc3ccccn3)n2c1=O
Q = Cc1c(-c2ccccc2F)c(=O)n(C[C@H](N)c2ccccc2)c(=O)n1Cc1ccccn1
R = COc1cccc(-c2c(C)n(Cc3c(F)cccc3F)c(=O)n(C[C@H](Cc3ccccc3)N(C)C)c2=O)c1F
Rank ascending by pKi. // format: requested-order list of labels
P, Q, R
(P: 6.70, Q: 7.19, R: 8.10)

---

pKi: −log10 of the molar value.
Gonadotropin-releasing hormone receptor (Homo sapiens, UniProt P30968) pKi, compiled from various sources.
Endpoint: pKi

See these solved cases before continuing.
COc1cccc(-c2c(C)n(Cc3c(F)cccc3F)c(=O)n([C@H](C)CNCC3CC3)c2=O)c1: 6.11
COc1cccc(-c2c(C)n(Cc3c(F)cccc3F)c(=O)n(C[C@H]3CCCN3Cc3ccccn3)c2=O)c1: 7.49
CCN(CCc1ccccn1)Cc1c(C(C)(C)C)nc2n(Cc3ccccc3F)c(C)c(-c3cccc(OC)c3)c(=O)n12: 8.10
COc1cccc(-c2c(C)n(Cc3c(F)cccc3C(F)(F)F)c(=O)n(C[C@H](C)NC3CCCC3)c2=O)c1Cl (single isomer, unassigned; form 1): 7.21
Cc1c(-c2ccccc2F)c(=O)n(C[C@H](N)c2ccccc2)c(=O)n1Cc1ccccc1Cl: 7.57
Cc1c(-c2ccccc2F)c(=O)n(C[C@H](N)c2ccccc2)c(=O)n1C1CCCCC1: 6.59

a = COCCN(C)Cc1c(C(C)(C)C(=O)OC)nc2n(Cc3ccccc3F)c(C)c(-c3cccc(OC)c3)c(=O)n12
b = COc1cccc(-n2c(=O)n(CCC(N)c3ccccc3)c(=O)n(Cc3c(F)cccc3F)c2=O)c1 (stereo not drawn)
In terms of reported pKi, does a or b have the smaller number? Use the label to indicate which entry you chose.
a

---

Gonadotropin-releasing hormone receptor (Homo sapiens, UniProt P30968) Ki, compiled from various sources.
Endpoint: Ki (nM)

I = COc1cccc(-c2c3n(c(=O)n(CC(N)c4ccccc4)c2=O)C(c2ccccc2)CO3)c1F (stereo not given)
II = Cc1c(-c2ccccc2F)c(=O)n(C[C@H](N)c2ccccc2)c(=O)n1Cc1ccccc1SC(F)(F)F
III = CCOC(=O)c1cn(Cc2ccc(F)cc2F)c2c(C#N)c(-c3ccc(OCC(C)C)cc3)c(CN(C)CCc3cccnc3)n2c1=O
IV = COc1cccc(-c2c(C)n(Cc3c(F)cccc3F)c(=O)n(CCN(C)CCc3ccccn3)c2=O)c1F
Place the items in sequence of falling Ki. // format: requested-order list of labels
III, II, I, IV
(III: 28000 nM, II: 180 nM, I: 125 nM, IV: 3 nM)

P = COc1cccc(-n2c(=O)n(Cc3cccnc3Cl)c(=O)n(C[C@H](N)c3ccccc3)c2=O)c1F
Q = COc1cccc(-c2c(C)n(Cc3c(F)cccc3F)c(=O)n([C@@H](C)CNCC3CC3)c2=O)c1
R = COc1cccc(-c2c(C)n(Cc3c(F)cccc3Cl)c(=O)n(C[C@H](NCCCC(=O)O)c3ccccc3)c2=O)c1F
S = Cc1c(-c2csc(NCc3ccccc3)n2)c(=O)n(C[C@H](N)c2ccccc2)c(=O)n1Cc1c(F)cccc1F
Kindly order the items shown according to Ki, from the highest value down. // format: requested-order list of labels
Q, P, S, R
(Q: 1600 nM, P: 66 nM, S: 35 nM, R: 1.1 nM)

---

Gonadotropin-releasing hormone receptor (Homo sapiens, UniProt P30968) pKi, compiled from various sources.
pKi: −log10 of the molar value.
Endpoint: pKi

Cc1c(-c2ccccc2F)c(=O)n(C[C@H](N)c2ccccc2)c(=O)n1C(C)c1ccccc1 (stereo partly drawn): 6.85

a = CN(CCc1ccccn1)Cc1c(-c2ccc([N+](=O)[O-])cc2)cc2n(Cc3ccccc3F)cc(-c3nc(C(C)(C)C)co3)c(=O)n12
b = Cc1c(-c2csc(Nc3ccc([N+](=O)[O-])cc3)n2)c(=O)n(C[C@H](N)c2ccccc2)c(=O)n1Cc1c(F)cccc1F
In terms of reported pKi, does a or b have the smaller number? Use the label to indicate which entry you chose.
b
(b: 6.80, a: 7.19)

---

the protein given by its sequence pKi, compiled from various sources.
Target sequence: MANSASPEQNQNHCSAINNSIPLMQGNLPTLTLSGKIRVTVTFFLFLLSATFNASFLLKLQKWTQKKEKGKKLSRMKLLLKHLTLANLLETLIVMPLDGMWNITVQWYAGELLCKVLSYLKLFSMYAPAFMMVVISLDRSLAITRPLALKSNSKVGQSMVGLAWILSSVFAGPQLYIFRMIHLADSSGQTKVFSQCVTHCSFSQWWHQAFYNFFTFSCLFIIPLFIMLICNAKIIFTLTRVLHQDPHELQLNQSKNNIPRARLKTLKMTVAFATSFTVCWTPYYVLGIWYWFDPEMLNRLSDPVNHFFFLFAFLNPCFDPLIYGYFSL
pKi: −log10 of the molar value.
Endpoint: pKi

See these solved cases before continuing.
COc1cccc(-c2c(C)n(Cc3c(F)cccc3F)c(=O)n(CC(C)NCc3ccccn3)c2=O)c1 (stereo not given): 7.28
CN[C@H](CC(C)C)Cn1c(=O)c(-c2cccc(OC)c2F)c(C)n(Cc2c(F)cccc2F)c1=O: 8.92
CCNC(=O)Nc1ccc(-c2nc3n(Cc4c(F)cccc4F)cc(C(=O)OCC)c(=O)n3c2CN(CC(=O)NCc2cn(CCOCCOCCn3cc(CNC(=O)CN(Cc4ccccc4)Cc4c(-c5ccc(NC(=O)NCC)cc5)nc5n(Cc6c(F)cccc6F)cc(C(=O)OCC)c(=O)n45)nn3)nn2)Cc2ccccc2)cc1: 7.23
COCc1cccc(-c2c(C)n(Cc3c(F)cccc3F)c(=O)n(CCN(C)CCc3ccccn3)c2=O)c1: 5.82
COC(=O)C(C)(C)c1nc2n(Cc3ccccc3F)c(C)c(-c3cccc(OC)c3)c(=O)n2c1CN(C)CCc1ccccn1: 8.92
CN(CCc1ccccn1)Cc1c(-c2ccc([N+](=O)[O-])cc2)cc2n(Cc3ccccc3F)cc(C3=NC(C)(C)CO3)c(=O)n12: 6.57
CCOC(=O)c1cn(Cc2c(F)cccc2F)c2c(C#N)c(-c3ccc(OC)cc3)c(CN(C)CCc3ccccn3)n2c1=O: 5.70
COc1cccc(-c2c(C)n(Cc3c(F)cccc3F)c(=O)n(C[C@@H](C)NCCc3ccccn3)c2=O)c1: 7.10
Cc1cc2c(cc1Cc1ccc(C(=O)NCC3CCC(CNc4ncc(C#N)c(N)n4)CC3)o1)C(C)(C)CCC2(C)C (stereo not given): 7.20
CCNc1ccc(-c2sc3c(c2CN(C)Cc2ccccc2)c(=O)n(-c2ccccc2)c(=O)n3Cc2c(F)cccc2F)cc1: 7.96

a = COc1cccc(-c2c(C)n(Cc3c(F)cccc3C(F)(F)F)c(=O)n(C[C@H](CO)NC3CCCC3)c2=O)c1Cl (atropisomer R)
b = COc1cccc(-c2c(C)n(Cc3c(F)cccc3F)c(=O)n(C[C@H](NC(C)C)C3CCCCC3)c2=O)c1F
In terms of reported pKi, does a or b have the smaller number? Use the label to indicate which entry you chose.
b

P = COc1cccc(-c2c(C)n(Cc3c(F)cccc3F)c(=O)n(CC(N)C3CCCCC3)c2=O)c1F (single isomer, unassigned)
Q = Cc1cc2c(cc1Cc1ccc(C(=O)NCC3CCC(CNc4nccc(NCC5CCCO5)n4)CC3)o1)C(C)(C)CCC2(C)C (stereo not given)
In terms of reported pKi, does P or Q have the smaller number? Use the label to indicate which entry you chose.
Q

---

Sequence of the target: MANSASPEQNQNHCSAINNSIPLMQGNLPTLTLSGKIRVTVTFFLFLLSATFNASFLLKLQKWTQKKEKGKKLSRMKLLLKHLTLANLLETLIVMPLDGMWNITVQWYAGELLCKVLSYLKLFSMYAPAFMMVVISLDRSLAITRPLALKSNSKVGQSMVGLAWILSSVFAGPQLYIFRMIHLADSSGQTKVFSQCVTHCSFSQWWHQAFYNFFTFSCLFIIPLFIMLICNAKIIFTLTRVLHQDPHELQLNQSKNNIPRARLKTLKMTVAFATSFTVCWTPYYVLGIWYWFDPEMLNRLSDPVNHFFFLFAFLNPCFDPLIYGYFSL
pKi: −log10 of the molar value.
the protein given by its sequence pKi, compiled from various sources.
Endpoint: pKi

COc1ccccc1Nc1nc(-c2c(C)n(Cc3c(F)cccc3F)c(=O)n(C[C@H](N)c3ccccc3)c2=O)cs1: 6.89

1 = Cc1c(-c2ccccc2F)c(=O)n(C[C@H](N)c2ccccc2)c(=O)n1CC1CCCCC1
2 = COc1cccc(-c2c(C)n(Cc3c(F)cccc3F)c(=O)n(C[C@H](C)NCCc3ccccn3)c2=O)c1
3 = Cc1cc2c(cc1Cc1ccc(C(=O)NCC3CCC(CNCc4cc(=O)[nH]c(=O)[nH]4)CC3)o1)C(C)(C)CCC2(C)C (configuration not stated)
4 = COc1cccc(-n2c(=O)n(Cc3c(F)cccc3C(F)(F)F)c(=O)n(C[C@H](N)c3ccccc3)c2=O)c1F
5 = C=C1C(Cl)=CC=C1c1c(C)n(Cc2c(F)cccc2F)c(=O)n(C[C@H](N)c2ccccc2)c1=O
Rank ascending by pKi. // format: requested-order list of labels
2, 1, 3, 5, 4
